# experimental-system: Fes (UniProt P07332)
# Sequence (P07332 whole entry, looked up): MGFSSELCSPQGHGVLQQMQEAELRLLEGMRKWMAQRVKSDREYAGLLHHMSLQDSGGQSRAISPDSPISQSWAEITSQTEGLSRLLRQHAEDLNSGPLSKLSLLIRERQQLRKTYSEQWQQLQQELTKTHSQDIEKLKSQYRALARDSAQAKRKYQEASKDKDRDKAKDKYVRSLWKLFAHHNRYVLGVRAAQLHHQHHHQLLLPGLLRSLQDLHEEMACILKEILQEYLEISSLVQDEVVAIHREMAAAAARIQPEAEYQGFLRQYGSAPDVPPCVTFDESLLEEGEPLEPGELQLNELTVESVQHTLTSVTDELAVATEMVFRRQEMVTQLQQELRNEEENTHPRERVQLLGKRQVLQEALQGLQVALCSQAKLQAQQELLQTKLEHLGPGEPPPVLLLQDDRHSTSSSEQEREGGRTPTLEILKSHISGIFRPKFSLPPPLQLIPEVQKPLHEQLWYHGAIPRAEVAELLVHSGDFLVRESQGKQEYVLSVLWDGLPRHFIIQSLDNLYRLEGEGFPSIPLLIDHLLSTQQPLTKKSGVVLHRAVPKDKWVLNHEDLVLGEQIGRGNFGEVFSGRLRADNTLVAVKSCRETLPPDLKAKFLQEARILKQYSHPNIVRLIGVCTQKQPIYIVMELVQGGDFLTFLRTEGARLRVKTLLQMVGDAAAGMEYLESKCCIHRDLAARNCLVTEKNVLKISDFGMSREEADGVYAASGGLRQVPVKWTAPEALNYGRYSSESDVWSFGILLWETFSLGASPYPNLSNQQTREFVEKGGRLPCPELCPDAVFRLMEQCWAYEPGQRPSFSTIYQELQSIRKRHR
# test-name: phosphorylation enrichment, bacterial display (enrichment ratio); higher = better substrate or ligand; peptides without Tyr show the background;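 note: 11-residue human phosphosite peptides and single-mutation variants displayed on the E. coli surface, counted by deep sequencing, each peptide's frequency after selection divided by its frequency in the unselected input library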;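 note: frequency after pTyr selection over input frequency; kinase dosed for 20-30% of maximal phosphorylation in three min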
reported-metric: phosphorylation enrichment
// response body must contain only the number

In the examples that follow, each entry is paired with its recorded phosphorylation enrichment.
{"columns": ["chain", "reported-metric", "measured"],
 "data": [
  ["HESEIYGKVCY [CSRP3_Y57_C58G]", "phosphorylation enrichment", 1.32],
  ["TYVVLYDAELT [ERCC4_Y581_R576T]", "phosphorylation enrichment", 1.16],
  ["LARDIYKNDYY [ROS1_Y2110]", "phosphorylation enrichment", 0.828],
  ["GREAEYSDKHG [EPHB4_Y574]", "phosphorylation enrichment", 0.821]
]}

If you can, please state the reported phosphorylation enrichment value of GNLLIYTELGK [HGD_Y166_F169L] .
1.43

If you can, please state the reported phosphorylation enrichment value of NTGGFYDLFGG [PTPN11_Y63_D61G_YF] .
1.18

If you can, please state the reported phosphorylation enrichment value of GRQGIYTENKR [GPR143_Y231_E235K] .
0.585

If you can, please state the reported phosphorylation enrichment value of IMICAYLLHRG [PTEN_Y138_V133I] .
1.35

If you can, please state the reported phosphorylation enrichment value of ASNFNYFYHRE [KCNA1_Y413_V408A] .
0.964

###

# experimental-system: EPHB1 (UniProt P54762)
# Sequence (P54762 whole entry, looked up): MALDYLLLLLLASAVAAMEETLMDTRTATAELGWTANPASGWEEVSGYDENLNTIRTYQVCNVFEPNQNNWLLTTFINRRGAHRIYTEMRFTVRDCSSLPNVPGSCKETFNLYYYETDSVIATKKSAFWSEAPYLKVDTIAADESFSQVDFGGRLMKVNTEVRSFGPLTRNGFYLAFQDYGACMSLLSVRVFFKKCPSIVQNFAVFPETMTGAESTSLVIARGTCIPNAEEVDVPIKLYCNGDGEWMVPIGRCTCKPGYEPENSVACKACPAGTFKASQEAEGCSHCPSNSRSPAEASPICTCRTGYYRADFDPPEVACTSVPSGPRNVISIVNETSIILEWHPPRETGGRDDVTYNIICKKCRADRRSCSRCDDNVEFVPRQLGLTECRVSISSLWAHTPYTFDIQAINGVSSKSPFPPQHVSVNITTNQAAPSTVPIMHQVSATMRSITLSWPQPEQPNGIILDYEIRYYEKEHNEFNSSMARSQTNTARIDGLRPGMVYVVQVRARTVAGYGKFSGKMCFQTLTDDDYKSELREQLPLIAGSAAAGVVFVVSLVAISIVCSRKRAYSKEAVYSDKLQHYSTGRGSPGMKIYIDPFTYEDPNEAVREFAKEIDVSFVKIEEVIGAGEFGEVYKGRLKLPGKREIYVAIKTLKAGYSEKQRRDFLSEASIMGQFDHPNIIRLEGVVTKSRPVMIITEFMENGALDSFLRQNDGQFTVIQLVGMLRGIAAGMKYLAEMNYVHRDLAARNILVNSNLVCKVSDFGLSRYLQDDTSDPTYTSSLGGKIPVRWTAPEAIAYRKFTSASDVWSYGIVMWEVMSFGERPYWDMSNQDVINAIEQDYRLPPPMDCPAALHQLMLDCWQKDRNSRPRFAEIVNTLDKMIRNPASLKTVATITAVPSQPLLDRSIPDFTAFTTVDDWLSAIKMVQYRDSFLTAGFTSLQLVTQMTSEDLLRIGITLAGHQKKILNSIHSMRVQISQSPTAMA
# test-name: phosphorylation enrichment, bacterial display (enrichment ratio); higher = better substrate or ligand; peptides without Tyr show the background
reported-metric: phosphorylation enrichment
// response body must contain only the number

In the examples that follow, each entry is paired with its recorded phosphorylation enrichment.
{"columns": ["chain", "phosphorylation enrichment"],
 "data": [
  ["DHTVNYVLKCR [PLEKHG4_Y1068_R1064H]", 0.699],
  ["HDRNTYEKYLG [TF_Y666]", 0.781],
  ["RGYRQDAYDGK [HLA-A_Y140]", 0.519]
]}

If you can, please state the reported phosphorylation enrichment value of ITGNGYFFRVF [MYBPC3_Y1135_I1131T_YF] .
0.496

If you can, please state the reported phosphorylation enrichment value of WPLKWYAPECI [ZAP70_Y506] .
0.886

If you can, please state the reported phosphorylation enrichment value of EEQKRYYNAMK [SCN5A_Y1494_K1493R] .
0.512

If you can, please state the reported phosphorylation enrichment value of SHMVDYQPYRK [TEX37_Y25] .
0.609

If you can, please state the reported phosphorylation enrichment value of REGKIYEYNQV [ZNF665_Y162_H157R] .
0.716

If you can, please state the reported phosphorylation enrichment value of GGCQEYTGAPF [NAXD_Y85_YF] .
0.541

If you can, please state the reported phosphorylation enrichment value of PDSVDYRKKGF [CTSK_Y121_YF] .
0.468

If you can, please state the reported phosphorylation enrichment value of GAALAYGLDKS [HSPA9_Y230_A225G] .
0.337

###

# Test system: Fer (mouse)
# test-name: phosphorylation enrichment, bacterial display (enrichment ratio); higher = better substrate or ligand; peptides without Tyr show the background
Documented phosphorylation enrichment across a set of sequences

{"columns": ["chain", "phosphorylation enrichment"],
 "data": [
  ["FVTSMYNEILI [TRPV1_Y310_M315I]", 6.66]
]}

If you can, please state the reported phosphorylation enrichment value of MAFDRYVAICS [OR8D4_Y123_C120Y_YF] .
0.563

If you can, please state the reported phosphorylation enrichment value of FEEDSYSHIMA [FDPS_Y388_YF] .
1.07
